target: Kir3.1/Kir3.4 (Homo sapiens, UniProt P48544+P48549); assay: Activation of GIRK1/4 (unknown origin) by cell-based thallium flux assay
Sequence (P48549 whole entry): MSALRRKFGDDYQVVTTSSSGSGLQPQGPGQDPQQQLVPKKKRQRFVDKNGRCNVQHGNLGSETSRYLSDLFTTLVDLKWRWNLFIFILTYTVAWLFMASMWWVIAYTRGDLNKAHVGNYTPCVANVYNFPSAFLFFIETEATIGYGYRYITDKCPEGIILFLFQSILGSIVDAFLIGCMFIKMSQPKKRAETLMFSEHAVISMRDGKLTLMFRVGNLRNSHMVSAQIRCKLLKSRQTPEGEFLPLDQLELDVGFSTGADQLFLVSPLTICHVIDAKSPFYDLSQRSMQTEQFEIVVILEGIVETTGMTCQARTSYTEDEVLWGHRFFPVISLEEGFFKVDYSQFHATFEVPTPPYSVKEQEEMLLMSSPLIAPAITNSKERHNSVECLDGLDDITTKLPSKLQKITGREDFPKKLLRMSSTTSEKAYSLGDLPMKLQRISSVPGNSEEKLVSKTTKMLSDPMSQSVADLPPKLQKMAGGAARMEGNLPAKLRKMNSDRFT
Sequence (P48544 whole entry): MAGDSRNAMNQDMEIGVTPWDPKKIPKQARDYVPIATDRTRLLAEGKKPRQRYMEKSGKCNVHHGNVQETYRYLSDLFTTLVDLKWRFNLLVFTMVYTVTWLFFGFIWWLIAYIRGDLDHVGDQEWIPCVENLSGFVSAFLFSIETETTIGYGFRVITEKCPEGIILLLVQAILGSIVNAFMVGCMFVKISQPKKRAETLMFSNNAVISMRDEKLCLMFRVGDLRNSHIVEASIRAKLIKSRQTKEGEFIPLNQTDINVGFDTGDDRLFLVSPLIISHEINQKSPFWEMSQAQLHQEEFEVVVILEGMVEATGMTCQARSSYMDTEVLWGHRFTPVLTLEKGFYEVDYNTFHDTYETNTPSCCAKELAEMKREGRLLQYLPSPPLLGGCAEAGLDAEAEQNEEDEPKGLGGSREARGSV
attributeMeasured: EC50 (µM)

Here's what some known entries look like.
INSERT INTO results (structurenotation, testedsystem, attributemeasured, observedresult) VALUES
  ('Cc1ccc(NC(=O)Cc2ccccc2Br)cc1S(=O)(=O)N(C)C', 'Kir3.1/Kir3.4 (Homo sapiens, UniProt P48544+P48549)', 'EC50', 1.6),
  ('CN(C)S(=O)(=O)c1cccc(NC(=O)Cc2ccc(Cl)cc2)c1', 'Kir3.1/Kir3.4 (Homo sapiens, UniProt P48544+P48549)', 'EC50', 2.2);

[P] CN(C)S(=O)(=O)c1cccc(NC(=O)Cc2ccccc2Cl)c1
[Q] Cc1ccc(NC(=O)Cc2ccccc2Cl)cc1S(=O)(=O)N(C)C
[R] Cc1ccc(NC(=O)Cc2ccc(F)cc2)cc1S(=O)(=O)N(C)C
// ranking: key=EC50, reverse=True Give the labels in the order requested.
R, P, Q
